- Target desc: T1, human MSLN-R1-his protein (human, UniProt Q13421 296-390)
- T1 construct: also called hMSLN-R1-his; human MSLN-R1 protein; not shown: His tag
- T1 chain: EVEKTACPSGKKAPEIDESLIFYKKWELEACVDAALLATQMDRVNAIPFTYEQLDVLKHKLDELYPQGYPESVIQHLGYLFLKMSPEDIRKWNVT
- Assay: ELISA, coated antigen; antibody 100 nM
Endpoint: OD450
The answer should be written as a number, with no unit following it.

Need OD450 of S009-F1.59.1 human-murine chimeric antibody (antibody, human IgG1, kappa, V domains shown, Chimeric IgG1/kappa) VH: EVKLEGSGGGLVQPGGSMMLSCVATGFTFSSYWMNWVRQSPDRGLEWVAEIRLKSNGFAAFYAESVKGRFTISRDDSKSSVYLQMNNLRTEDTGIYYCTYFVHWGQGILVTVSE VL: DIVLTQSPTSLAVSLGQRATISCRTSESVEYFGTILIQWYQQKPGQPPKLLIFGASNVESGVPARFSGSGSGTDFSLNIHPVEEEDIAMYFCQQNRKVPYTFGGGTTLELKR , thanks.
0.06

These data points were gathered from patent US20250250357A1.
